- measuredTarget: UniProt P21554
- testProtocol: CB1 cAMP Antagonist Assay (LANCE Ultra cAMP kit)
- condition: Flp-In CHO cells stably expressing the CB1 receptor; forskolin and CP55940 agonist at EC90; cAMP FRET readout
pIC50: −log10 of the molar value.
Here the recorded pIC50 is given for each entry.

Previously resolved entries follow.
Cn1c(N2CC(c3ccccc3)C(c3ccc(Cl)cc3)=N2)nn(CCc2ccc(C(=O)O)cc2)c1=O (centres unmarked) [Compound 195]: < 5.30
O=C(O)CCn1c(N2C[C@@]3(CCc4ccccc43)C(c3ccc(Cl)cc3)=N2)nn(Cc2ccc(Cl)cc2)c1=O [Compound 131]: < 5.30
Cn1c(N2C[C@]3(CCc4ccccc43)C(c3ccc(Cl)cc3)=N2)nn(-c2ccc(Cl)cc2)c1=O [Compound 109]: < 5.30
C[C@H](C(N)=O)n1c(N2C[C@@H](c3ccccc3)C(c3ccc(Cl)cc3)=N2)nn(Cc2ccc(Cl)cc2)c1=O [Compound 180]: < 5.30
NC(=O)Cn1c(N2C[C@H](c3ccccc3)C(c3ccc(Cl)cc3)=N2)nn(-c2ccc(Cl)cc2)c1=O [Compound 111]: > 7.00

# lookup: pIC50 of C[C@H](C(N)=O)n1c(N2C[C@@H](c3ccccc3)C(c3ccc(Cl)cc3)=N2)nn(Cc2ccc(CN3CCOCC3)cc2)c1=O [Compound 164] < 5.30

# lookup: pIC50 of C[C@@H](C(N)=O)n1c(N2C[C@@H](c3ccccc3)C(c3ccc(Cl)cc3)=N2)nn(Cc2ccc(Cl)cc2)c1=O [Compound 179] < 5.30

# lookup: pIC50 of C[C@H](C(N)=O)n1c(N2C[C@H](c3ccccc3)C(c3ccc(Cl)cc3)=N2)nn(Cc2ccc(Cl)cn2)c1=O [Compound 205] > 7.00

# lookup: pIC50 of Cn1c(N2CC(c3ccccc3)C(c3ccc(Cl)cc3)=N2)nn(Cc2ccc(C(N)=O)cc2)c1=O (centres unmarked) [Compound 192] 6.00 to 7.00

# lookup: pIC50 of Cn1c(N2C[C@@H](c3ccccc3)C(c3ccc(Cl)cc3)=N2)nn(Cc2ccc(Cl)cc2)c1=O [Compound 103] > 7.00

# lookup: pIC50 of Cn1c(N2CC(c3ccccc3)C(c3ccc(Cl)cc3)=N2)nn(Cc2ccccc2Cl)c1=O (centres unmarked) [Compound 171] > 7.00

###

Here the recorded IC50 is given for each entry.
- measuredTarget: CB1 receptor (Homo sapiens)
- testProtocol: CB1 cAMP Antagonist Assay (LANCE Ultra cAMP kit)
- condition: Flp-In CHO cells stably expressing the CB1 receptor; forskolin and CP55940 agonist at EC90; cAMP FRET readout
- Source text: CB1 cAMP Antagonist Assay LANCE Ultra cAMP kit (Perkin Elmer) was used to quantitate the amount of 3′,5′-cyclic adenosine monophosphate (cAMP) produced in Flp-In CHO (Invitrogen) cells stably expressing the CB1 receptor. Forskolin was initially titrated to determine the response of the cells. […] For all assays, cells were harvested, counted, and diluted in cAMP assay buffer to 1× 10^5 cells/mL. […] The FRET signal was read using an EnVision microplate reader (λex=320 nm, λem=615 nm and 665 nm). […]

Previously resolved entries follow.
Cn1c(N2C[C@@H](c3ccccc3)C(c3ccc(Cl)cc3)=N2)nn(-c2ccc(CN3CCOCC3)cc2)c1=O: > 5000 nM
NC(=O)Cn1c(N2C[C@H](c3ccccc3)C(c3ccc(Cl)cc3)=N2)nn(Cc2ccc(Cl)cc2)c1=O: < 100 nM
C[C@@H](C(N)=O)n1c(N2C[C@@H](c3ccccc3)C(c3ccc(Cl)cc3)=N2)n[nH]c1=O: > 5000 nM
COc1ccc(Cn2nc(N3CC(c4ccccc4)C(c4ccc(Cl)cc4)=N3)n([C@H](C)C(N)=O)c2=O)cc1OC (stereo partly shown): 100 to 1000 nM

# lookup: IC50 of `CN1CCN(Cc2ccc(Cn3nc(N4C[C@@H](c5ccccc5)C(c5ccc(Cl)cc5)=N4)n(C)c3=O)cc2)CC1` > 5000 nM

# lookup: IC50 of `C[C@H](C(N)=O)n1c(N2C[C@@H](c3ccccc3)C(c3ccc(Cl)cc3)=N2)nn(Cc2ccc(Cl)cn2)c1=O` > 5000 nM

# lookup: IC50 of `C[C@H](C(=O)NCCO)n1c(N2C[C@H](c3ccccc3)C(c3ccc(Cl)cc3)=N2)nn(Cc2ccc(Cl)cc2)c1=O` < 100 nM

# lookup: IC50 of `O=c1[nH]nc(N2C[C@@H](c3ccccc3)C(c3ccc(Cl)cc3)=N2)[nH]1` > 5000 nM

# lookup: IC50 of `COc1ccc(Cn2nc(N3C[C@@H](c4ccccc4)C(c4ccc(Cl)cc4)=N3)n(C)c2=O)cc1` 1000 to 5000 nM

# lookup: IC50 of `O=C(O)CCn1c(N2C[C@]3(CCc4ccccc43)C(c3ccc(Cl)cc3)=N2)nn(Cc2ccc(Cl)cc2)c1=O` > 5000 nM

# lookup: IC50 of `Cn1c(N2C[C@H](c3ccccc3)C(c3ccc(Cl)cc3)=N2)n[nH]c1=O` 1000 to 5000 nM

# lookup: IC50 of `COCCn1c(N2C[C@]3(CCc4ccccc43)C(c3ccc(Cl)cc3)=N2)nn(-c2ccc(Cl)cc2)c1=O` > 5000 nM

###

Here the recorded IC50 is given for each entry.
- measuredTarget: CB1 receptor (Homo sapiens, UniProt P21554)
- Sequence (P21554 whole entry): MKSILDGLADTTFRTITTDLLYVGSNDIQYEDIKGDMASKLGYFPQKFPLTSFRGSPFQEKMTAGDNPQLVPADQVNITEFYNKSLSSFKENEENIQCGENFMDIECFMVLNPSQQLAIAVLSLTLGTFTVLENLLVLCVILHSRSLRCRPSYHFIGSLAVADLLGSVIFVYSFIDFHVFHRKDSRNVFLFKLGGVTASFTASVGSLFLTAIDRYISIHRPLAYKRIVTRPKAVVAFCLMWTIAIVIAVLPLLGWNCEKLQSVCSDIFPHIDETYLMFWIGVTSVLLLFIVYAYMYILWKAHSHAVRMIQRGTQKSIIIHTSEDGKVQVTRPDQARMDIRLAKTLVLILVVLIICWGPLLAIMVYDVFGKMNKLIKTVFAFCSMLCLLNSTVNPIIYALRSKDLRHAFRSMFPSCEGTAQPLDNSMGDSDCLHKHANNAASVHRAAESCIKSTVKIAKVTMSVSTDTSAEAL
- testProtocol: CB1 cAMP Antagonist Assay (LANCE Ultra cAMP kit)
- condition: Flp-In CHO cells stably expressing the CB1 receptor; forskolin and CP55940 agonist at EC90; cAMP FRET readout
- Source text: CB1 cAMP Antagonist Assay LANCE Ultra cAMP kit (Perkin Elmer) was used to quantitate the amount of 3′,5′-cyclic adenosine monophosphate (cAMP) produced in Flp-In CHO (Invitrogen) cells stably expressing the CB1 receptor. Forskolin was initially titrated to determine the response of the cells. […] For all assays, cells were harvested, counted, and diluted in cAMP assay buffer to 1× 10^5 cells/mL. […] The FRET signal was read using an EnVision microplate reader (λex=320 nm, λem=615 nm and 665 nm). […]

Previously resolved entries follow.
CCOC(=O)Cn1c(N2C[C@@H](c3ccccc3)C(c3ccc(Cl)cc3)=N2)nn(-c2ccc(Cl)cc2)c1=O [Compound 105]: < 0.1 µM
Cn1c(N2C[C@H](c3ccccc3)C(c3ccc(Cl)cc3)=N2)nn(-c2ccc(Cl)cc2)c1=O [Compound 101]: < 0.1 µM
C[C@H](C(=O)NCCO)n1c(N2C[C@@H](c3ccccc3)C(c3ccc(Cl)cc3)=N2)nn(Cc2ccc(Cl)cc2)c1=O [Compound 191]: 0.1 to 1 µM
C[C@@H](C(N)=O)n1c(N2C[C@H](c3ccccc3)C(c3ccc(Cl)cc3)=N2)n[nH]c1=O [Compound 203]: > 5 µM
Cn1c(N2CC(c3ccccc3)C(c3ccc(Cl)cc3)=N2)nn(Cc2ccc(Cl)cn2)c1=O (stereo not shown) [Compound 177]: < 0.1 µM
C[C@@H](C(=O)NCCO)n1c(N2C[C@@H](c3ccccc3)C(c3ccc(Cl)cc3)=N2)nn(Cc2ccc(Cl)cc2)c1=O [Compound 187]: > 5 µM
COC(=O)c1cccc(Cn2nc(N3CC(c4ccccc4)C(c4ccc(Cl)cc4)=N3)n(C)c2=O)c1 (stereo not shown) [Compound 189]: 0.1 to 1 µM
C[C@H](c1ccc(Cl)cc1)n1nc(N2C[C@@H](c3ccccc3)C(c3ccc(Cl)cc3)=N2)n(CC(N)=O)c1=O [Compound 152]: 1 to 5 µM
Cn1c(N2C[C@H](c3ccccc3)C(c3ccc(Cl)cc3)=N2)nn(Cc2ccc(CN3CCOCC3)cc2)c1=O [Compound 136]: 0.1 to 1 µM
Cn1c(N2C[C@]3(CCc4ccccc43)C(c3ccc(Cl)cc3)=N2)nn(Cc2ccc(Cl)cc2)c1=O [Compound 115]: 1 to 5 µM

# lookup: IC50 of COCCn1c(N2C[C@@]3(CCc4ccccc43)C(c3ccc(Cl)cc3)=N2)nn(-c2ccc(Cl)cc2)c1=O [Compound 117] > 5 µM

# lookup: IC50 of CN1CCN(Cc2ccc(Cn3nc(N4C[C@H](c5ccccc5)C(c5ccc(Cl)cc5)=N4)n(C)c3=O)cc2)CC1 [Compound 137] 1 to 5 µM

###

- measuredTarget: CB1 receptor (Homo sapiens)
- testProtocol: CB1 cAMP Antagonist Assay (LANCE Ultra cAMP kit)
- condition: Flp-In CHO cells stably expressing the CB1 receptor; forskolin and CP55940 agonist at EC90; cAMP FRET readout
- Description: CB1 cAMP Antagonist Assay LANCE Ultra cAMP kit (Perkin Elmer) was used to quantitate the amount of 3′,5′-cyclic adenosine monophosphate (cAMP) produced in Flp-In CHO (Invitrogen) cells stably expressing the CB1 receptor. Forskolin was initially titrated to determine the response of the cells. […] For all assays, cells were harvested, counted, and diluted in cAMP assay buffer to 1× 10^5 cells/mL. […] The FRET signal was read using an EnVision microplate reader (λex=320 nm, λem=615 nm and 665 nm). […]
pIC50: −log10 of the molar value.
Here the recorded pIC50 is given for each entry.

# lookup: pIC50 of C[C@@H](C(N)=O)n1c(N2C[C@H](c3ccccc3)C(c3ccc(Cl)cc3)=N2)nn(Cc2ccc(Cl)cn2)c1=O [Compound 207] > 7.00

# lookup: pIC50 of NC(=O)CCn1c(N2C[C@]3(CCc4ccccc43)C(c3ccc(Cl)cc3)=N2)nn(-c2ccc(Cl)cc2)c1=O [Compound 126] 6.00 to 7.00

# lookup: pIC50 of Cn1c(N2CC3(CCc4ccccc43)C(c3ccc(Cl)cc3)=N2)nn(CC2CCCCC2)c1=O (stereo in doubt) [Compound 140] 5.30 to 6.00
